# log10 of TGI values compiled below
- Test system: HS 578T breast
- assayProcedure: NCI tumour cell line growth inhibition, 48 h
// do not treat as linear: log10 of TGI, unit µM

Field log10 of TGI (HS 578T breast), entry COC1/C=C/C(C)C(C(C)C(OC)C(C)CCC(=O)C(C)C(C/C=C/N(C)C=O)OC)OC(=O)C=CC2OC2(C)CC(OC)C(OC)C2=CC(=O)O[C@@H](C(C)C(OC)CC(OC)/C=C/C(C)C(O)C1)[C@H]2O (some centres undefined) : -1.45

Field log10 of TGI (HS 578T breast), entry Cc1cc(S(=O)(=O)Nc2nc3ccccc3nc2-c2cccc([N+](=O)[O-])c2)c(S)cc1Cl : 1.87
